- ASSAY EXPLANATION: hydrophobicity (chrom LogD7.4) and property forecast index (PFI)
- Type: physicochemical
- CONDITIONS USED: PFI = chrom LogD7.4 + #Ar
Known PFI of a selection of molecules
PROPERTY MEASURED: PFI

COCCNc1nnc2c3ccc(-c4c(C)noc4C)cc3n(Cc3ccccc3)c2n1 [Compound 12a] :: 10.6
Cc1nnn(C)c1-c1ccc2c3nnc(NCCO)nc3n(C(c3ccccn3)C3CCOCC3)c2c1 (centres unmarked) :: 7.15
Cc1nnn(C)c1-c1ccc2c3nnc(NCCO)nc3n([C@H](c3ccccn3)C3CCOCC3)c2c1 (single isomer, unassigned) :: 7.14
COCCNc1nnc2c3ccc(-c4c(C)noc4C)cc3n(C(c3ccccn3)C3CCOCC3)c2n1 (centres unmarked) :: 9.74
COCCNc1nnc2c3ccc(-c4c(C)noc4C)cc3n(C(c3ccccc3)C3CCNCC3)c2n1 (centres unmarked) :: 7.96
COCCNc1nnc2c3cc(-c4c(C)noc4C)ccc3n(Cc3ccc(F)cc3)c2n1 [Compound 13b] :: 10.8
COCCNc1nnc2c3ccc(-c4c(C)noc4C)cc3n(C(c3ccccc3)C3CCOCC3)c2n1 (centres unmarked) :: 10.6
Cc1nnn(C)c1-c1cnc2c3ccc(C(C)(C)O)cc3n([C@@H](c3ccccc3)C3CCOCC3)c2c1 (stereo in doubt) [Compound 4, BMS-986158, reference compound] :: 9.08

---

- TESTED ON: BRD4-BD1 (Homo sapiens, UniProt O60885)
- ASSAY EXPLANATION: lipophilic efficiency (LipE = pIC50 – cLogP)
- CONDITIONS USED: predicted using Data Warrior
Known LipE of a selection of molecules
PROPERTY MEASURED: LipE

COCCNc1nnc2c3cc(-c4c(C)noc4C)ccc3n(C(c3ccccc3)C3CCOCC3)c2n1 (stereo not drawn) :: 1.75
Cc1nnn(C)c1-c1cnc2c3ccc(C(C)(C)O)cc3n([C@@H](c3ccccc3)C3CCOCC3)c2c1 (stereo in doubt) [Compound 4, BMS-986158, reference compound] :: 3.51
COCCNc1nnc2c(n1)[nH]c1cc(-c3c(C)noc3C)ccc12 :: 4.39
